Tested on: UO-31 renal
Assay: NCI-60 one-dose screen, 48 h
Settings: 10 µM unless noted
Compounds without any hit were thinned out: in the full panel of roughly 83,000, 20% have a hit. The source made the active and inactive calls. The calls were made as follows: active = growth percent below 10; inactive = the rest.
Outcomes: active, inactive

Compound	Label
Cc1nc2sccn2c1-c1nnc(SCc2ccccc2)o1	inactive
O=C(CSc1nc2ccccc2c(=O)[nH]1)NNC(=O)c1ccccc1Cl	inactive
CN(C)c1nc(NCCNS(=O)(=O)c2ccc(C(=O)/C=C/c3ccccc3)cc2)nc(N2CCOCC2)n1	inactive
Cn1cc(-c2cc(N)n3nc(-c4c[nH]c5ccc(Cl)cc45)cc3n2)c2cc(Br)cnc21	active
COc1cc(CNC(=O)C[C@H](C)CCC=C(C)C)ccc1OCc1cn(-c2cccc(C(F)(F)F)c2)nn1	inactive
CCOc1ccccc1[C@H]1C(C(=O)c2ccc(Cl)cc2)C2(N[C@@H]1c1ccccc1)C(=O)Nc1ccccc12 (some centres undefined)	active
O=C1NC(=S)/C(=C/c2cn(-c3ccccc3)nc2-c2ccccc2)S1	inactive
COc1cc(CNC(=O)C[C@H](C)CCC=C(C)C)ccc1OCc1cn(-c2ccc(Cl)c(Cl)c2)nn1	inactive
O=C(Cn1c(-c2ccccc2)nc2ccccc21)N=Nc1c(O)[nH]c2ccc(Cl)cc12	active
Nc1nc2cc(-c3ccc4ncnc(NCc5ccccc5)c4c3)ccc2o1	active
N#Cc1cc(-c2ccc3ncnc(N4CCc5cc(F)c(Cl)cc54)c3c2)cnc1N	inactive
CC[C@]12C=CCN3CC[C@]4(C(=C(C(=O)OC)C1)Nc1cc(OC)c([C@@H]5[C@H]6O[C@H]6[C@@]6(CC)CC(C(=O)OC)=C7Nc8cc(OC)ccc8[C@@]78CCN5[C@@H]68)cc14)[C@@H]32	inactive
COc1ccc2[nH]c(=O)c(CSc3ccccc3Nc3nccc(-c4ccc(C(F)(F)F)cc4)n3)cc2c1	inactive
N#CC1=C(c2cccs2)Nc2c(c(-c3ccccc3)nn2-c2ccccc2)C12C(=O)Nc1ccc(Br)cc12 (centres undefined)	active
COc1ccc2c(c1)C(Sc1ccc(Cl)cc1)c1c(nc(N)c(C#N)c1N)O2 (centres undefined)	inactive
COc1ccccc1NC(=O)N/N=C/c1c[nH]c2ccccc12	inactive
NC(=O)c1ccc(-c2ccc3ncnc(N4CCc5cc(F)c(Cl)cc54)c3c2)cn1	inactive
COc1ccc(N=Nc2c(N)nn3c(-c4ccc(OC)c(OC)c4)ccnc23)cc1	inactive
COc1ccc2c(c1)C(Sc1ccc(Br)cc1)c1c(nc(N)c(C#N)c1N)O2 (centres undefined)	inactive
Cc1ccc2nc(SCc3ccccc3F)n(-c3ccccc3)c(=O)c2c1	inactive
Cc1ccc(S(=O)(=O)N(CCn2ccnc2[N+](=O)[O-])CCn2ccnc2[N+](=O)[O-])cc1	inactive
CCCCCCCCc1ccc(C(=O)Nc2cccc(O)c2)cc1	inactive
O=C(N/N=C/c1ccc(B(O)O)s1)c1[nH]c2ccc(Br)cc2c1-c1ccccc1	active
N#Cc1c(-c2ccc(F)cc2)nc(SCc2ccccc2)nc1N1CCNCC1	active
N#C/C(=C/c1ccc(Cl)cc1)c1nnc(NC(=O)c2ccc(-n3c(=O)[nH]c4ccccc4c3=O)cc2)s1	inactive
CS(=O)(=O)Nc1cc(-c2ccc3ncnc(N4CCc5cc(F)c(Cl)cc54)c3c2)cnc1Cl	active
O=C(Nc1ccc(-c2ccc3c(c2)NC(=O)/C3=C\c2ccc[nH]2)cc1)Nc1ccc(Cl)c(Cl)c1	inactive
O=Cc1cncc(-c2ccc3ncnc(N4CCc5cc(F)c(Cl)cc54)c3c2)c1	inactive
COc1cccc(-c2ccc(/C=N/NC(=O)c3[nH]c4ccc(Br)cc4c3-c3ccccc3)s2)c1	inactive

====

System: NCI-H322M lung
Assay: NCI-60 one-dose screen, 48 h (100 = growth as untreated, 0 = no growth, -100 = all killed)
Conditions: 10 µM unless noted
The panel holds about 83,000 compounds, 20% with a hit somewhere; the sample as a whole holds those more often.
# binarize growth: threshold 80% inclusive, high side t, low side f

> print(dat)
                                    compound  label
 1  CC1=C(C(=O)OC(C)C)C(c2ccc(O)cc2)NC(=O)N1 (stereo unspecified)      t
 2  O=C(NC(=S)N1CCN(c2ncnc3c2cnn3-c2ccccc2)CC1)c1ccc(Br)cc1      f
 3  COc1ccc(NC(=O)Cn2c(/C=C/c3cccc(Br)c3)nc3ccccc3c2=O)cc1      f
 4  O=C1CC(c2ccc(I)cc2)OC2C=Cc3ccccc3C12 (stereo unspecified)      t
 5  CCOC(=O)/C(F)=C/C1CC1C1CCN(C(=O)OC(C)(C)C)CC1 (stereo unspecified)      t
 6  C/C(=N/O)c1ccc(NC(=O)CSc2nnc(-c3ccc(-c4nc5ccc(Cl)cc5[nH]4)cc3)o2)cc1      f
 7   CCOc1ccccc1NC(=O)N/C(N)=N/c1nc2ccccc2s1      f
 8  CC1=C(C(=O)OCc2ccccc2)C(c2ccc(N(C)C)cc2)n2c(nc3ccccc32)N1 (stereo unspecified)      t
 9  CCCCCCCCCc1ccc(C(=O)Nc2cc(C)ccc2C(=O)OC)cc1      t
10  CC1=C(C(=O)Nc2ccccc2)C(c2ccc3ccccc3c2)n2c(nc3ccccc32)N1 (stereo unspecified)      f
11  O=C1N/C(=N\c2nccs2)S/C1=C\c1ccc([N+](=O)[O-])cc1      f
12  COc1cc(NC(=O)C(C)C)ccc1C(=O)NC(=S)Nc1ccc(S(N)(=O)=O)cc1      t
13  Cc1[nH]nc2ccc3nc(-c4cn[nH]c4C(F)(F)F)c4c(c3c12)CCCC4      f
14  COc1cc(C2C(C(=O)OCc3ccccc3)=C(C)Nc3nc4ccccc4n32)cc(OC)c1OC (stereo unspecified)      f
15  O=C(N/N=C/c1ccc(Cl)o1)c1[nH]c2ccc(Br)cc2c1-c1ccccc1      f
16  Cn1cc(-c2cc3nc(-c4c[nH]c5ccccc45)cc(N)n3n2)c2ccccc21      f
17       Cc1ccc2nc(NC(=O)Nc3cccc(Cl)c3)sc2c1      t
18  COc1ccc(-c2cc(C(=O)N=Nc3c(O)[nH]c4ccc(Cl)cc34)c3ccccc3n2)cc1OC      t
19  C[C@H](NC(=O)c1ccc2c(-c3ccc(C(F)(F)F)cc3)cccc2c1)c1ccccn1      f
20  CCOc1ccccc1[C@H]1C(C(=O)c2ccc(Cl)cc2)C2(N[C@@H]1c1ccccc1)C(=O)Nc1ccc(Cl)cc12 (stereo partly specified)      f
21  COc1ccc(-n2c(NC(=O)N3CCN(C)CC3)c(C#N)c3ccccc32)cc1      t
22  COc1ccc(-c2cc(-c3ccccc3)c(C#N)c(=O)[nH]2)cc1S(N)(=O)=O      t
23              C#CCCCNCCNc1ccnc2cc(Cl)ccc12      t
24  O=C(N=Nc1c(O)[nH]c2ccc(Cl)cc12)c1ccc2nc(-c3ccc(Cl)cc3)[nH]c2c1      f
25  COc1ccc(-c2nc3ccccc3n2CC(=O)N=Nc2c(O)[nH]c3ccc(Br)cc23)cc1      t
26  COc1cncc(-c2ccc3ncnc(N4CCc5ccc(Cl)cc54)c3c2)c1      f
27  Fc1ccccc1CNc1nc(SCCN2CCOCC2)nc2c1cnn2CC(Cl)c1ccc(Br)cc1 (stereo unspecified)      f
28  CC(=O)c1c2c(c3ccc4c5ccccc5ccc4n13)C(=O)c1ccccc1C2=O      t

====

Tested on: A549/ATCC NSCLC
Test: NCI-60 one-dose screen, 48 h (100 = growth as untreated, 0 = no growth, -100 = all killed)
Details: 10 µM unless noted
Description: Growth inhibition of the A549/ATCC human Non-Small Cell Lung tumor cell line is measured as a screen for anti-cancer activity. Cells are grown in 96 well plates and exposed to the test compound for 48 hours. Compounds are tested at a single concentration, which is 10^-5 M for most compounds. The reported endpoint is percent growth (GI% or GIPRCNT), where numbers from 0 - 100% represent growth inhibition, and numbers from -100% - 0 represent cell death. […]
The panel holds about 83,000 compounds, 20% with a hit somewhere; the sample as a whole holds those more often.
Note to self: growth under 60% means Met, ties and anything higher get Not met.

> print(dat)
                                    compound    label
 1  Cc1ccc(C(=O)Nc2cc(-c3ccccc3)cc(C(F)(F)F)c2)cc1C#Cc1cnc2cccnn12  Not met
 2  COc1ccc(N=Nc2c(N)nn3c(N)c(C#N)c(-c4ccccc4)nc23)cc1      Met
 3  O=C(Nc1ccc(-c2ccc3c(c2)NC(=O)/C3=C\c2ccc[nH]2)cc1)Nc1ccc(Cl)c(Cl)c1  Not met
 4  CCOc1ccc(-c2cc(-c3cc(C(C)C)c(O)cc3C)nn2-c2ccc(S(N)(=O)=O)cc2)cc1      Met
 5  COc1cc(NC(=O)C(C)C)ccc1C(=O)NC(=S)Nc1ccc(S(N)(=O)=O)cc1  Not met
 6   Clc1ccc(Nc2nnc(-c3c[nH]c4ccccc34)o2)cc1  Not met
 7  C=CCSc1nnc(-c2ccc(-c3nc4ccccc4[nH]3)cc2)o1  Not met
 8  COc1cc(NC(=O)CSc2nnc(-c3ccc(-c4nc5ccc(Cl)cc5[nH]4)cc3)o2)cc(OC)c1OC  Not met
 9  CN(C)c1nc(NCCNS(=O)(=O)c2ccc(C(=O)/C=C/c3ccc(Cl)cc3)cc2)nc(N2CCOCC2)n1      Met
10  Cc1ccc2nc(COc3ccc(C(=O)NNC(=O)Nc4ccc(Cl)c(C(F)(F)F)c4)cc3)[nH]c2c1      Met
11  O=C(Cn1c(/C=C/c2ccc([N+](=O)[O-])cc2)nc2ccccc2c1=O)Nc1ccccc1  Not met
12  CC1=C(C(=O)Nc2ccccc2)C(c2cccc3ccccc23)n2c(nc3ccccc32)N1 (configuration not stated)      Met
13  COc1ccc(C2=NN(C(=O)[C@H]3[C@@H](c4ccco4)c4sc(=O)[nH]c4S[C@@H]3C)C(c3ccc4ccccc4c3)C2)cc1 (some centres not stated)      Met
14  NS(=O)(=O)c1ccc(Nc2nc(SCC(=O)c3ccc(F)cc3)nc3ccccc23)cc1      Met
15  C=CC(=O)N1CCN(c2ccc3nc4c(nc3c2C(F)(F)F)C(=O)c2ncccc2C4=O)CC1      Met
16   CCOc1ccccc1NC(=O)N/C(N)=N/c1nc2ccccc2s1      Met
17  COc1ccc(-n2c(NC(=O)N3CCN(C)CC3)c(C#N)c3ccccc32)cc1      Met
18  Cc1ccc(C(=O)Nc2cc(-c3ccncc3)cc(C(F)(F)F)c2)cc1C#Cc1cnc2cccnn12      Met
19  COc1ccc2[nH]c(=O)c(CSc3ccccc3Nc3nccc(-c4ccc(Cl)cc4)n3)cc2c1      Met
20  CN(C)c1nc(NCCNS(=O)(=O)c2ccc(C(=O)/C=C/c3ccc(F)cc3)cc2)nc(N2CCOCC2)n1      Met
21       FC(F)(F)c1cc2c(Cl)ncnc2n1CCN1CCCCC1  Not met

Just for reference, PubChem BioAssay (NCI) is where these values come from.
